experimental details: Solubility in water and in histidine buffer
Type: physicochemical
test context: pH 6.8
outcome measure: solubility in histidine buffer

[[record]]
input_smiles = "CCCCCNc1nc(N)nc(C)c1Cc1ccc(CP(=O)(O)O)cc1OC"
recorded_result = "insoluble"

[[record]]
input_smiles = "CCCCCNc1nc(N)nc(C)c1Cc1ccc(CP(=O)(O)O)cc1"
recorded_result = "insoluble"

[[record]]
input_smiles = "CCOCc1nc2c(N)nc3ccccc3c2n1CCOCCP(=O)(O)O"
recorded_result = "insoluble"


* * *

study target: human TLR7 (Homo sapiens)
Construct: expressed in transfected cells; host or cells: HEK293
Sequence (Q9NYK1 27-1049): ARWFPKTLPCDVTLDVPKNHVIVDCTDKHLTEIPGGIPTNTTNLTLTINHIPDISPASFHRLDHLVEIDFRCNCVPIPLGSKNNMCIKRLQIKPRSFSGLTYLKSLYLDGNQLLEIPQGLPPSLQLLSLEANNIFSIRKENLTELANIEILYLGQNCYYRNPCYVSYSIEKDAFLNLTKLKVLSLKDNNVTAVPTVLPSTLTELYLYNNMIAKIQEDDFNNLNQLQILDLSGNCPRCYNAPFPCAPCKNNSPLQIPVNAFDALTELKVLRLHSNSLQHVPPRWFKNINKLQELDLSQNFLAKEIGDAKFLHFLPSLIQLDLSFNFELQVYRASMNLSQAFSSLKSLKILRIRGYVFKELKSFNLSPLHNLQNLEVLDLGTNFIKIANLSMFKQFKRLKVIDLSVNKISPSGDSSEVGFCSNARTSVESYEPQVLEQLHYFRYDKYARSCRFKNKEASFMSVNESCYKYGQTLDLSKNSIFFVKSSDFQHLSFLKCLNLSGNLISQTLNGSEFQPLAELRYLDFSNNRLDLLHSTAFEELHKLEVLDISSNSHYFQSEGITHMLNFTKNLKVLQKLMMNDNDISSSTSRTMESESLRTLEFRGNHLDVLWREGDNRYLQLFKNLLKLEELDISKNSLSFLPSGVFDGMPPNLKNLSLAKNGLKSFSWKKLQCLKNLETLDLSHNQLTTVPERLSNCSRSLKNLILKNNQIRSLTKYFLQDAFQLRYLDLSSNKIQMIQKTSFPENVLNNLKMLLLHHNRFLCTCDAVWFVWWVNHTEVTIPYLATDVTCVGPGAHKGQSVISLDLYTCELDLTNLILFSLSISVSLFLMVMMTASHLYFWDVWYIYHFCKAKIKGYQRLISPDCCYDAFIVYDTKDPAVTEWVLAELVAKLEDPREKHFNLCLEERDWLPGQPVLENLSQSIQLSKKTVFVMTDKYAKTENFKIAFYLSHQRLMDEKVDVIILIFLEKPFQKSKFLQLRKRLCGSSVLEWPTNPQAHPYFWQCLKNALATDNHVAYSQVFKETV
experimental details: HEK293 human TLR7 NF-κB luciferase reporter assay
Format: cell-based
test context: HEK293 cells
Values of activity compared to resiquimod (set to 100%) greater than or equal to 80% map to Y; values below map to N.

[[record]]
input_smiles = "COCCOc1cc2c(nc(O)n2Cc2ccc(CP(=O)(O)O)cc2)c(N)n1"
answer_label = "Y"

[[record]]
input_smiles = "COCCOc1nc(N)c2nc(O)n(Cc3ccc(CP(=O)(O)O)cc3)c2n1"
answer_label = "Y"

[[record]]
input_smiles = "CCOCc1nc2c(N)nc3ccccc3c2n1CCOCCP(=O)(O)O"
answer_label = "N"

[[record]]
input_smiles = "CCOCc1nc2c(N)nc3ccccc3c2n1CCOCCOCCOCCP(=O)(O)O"
answer_label = "N"

[[record]]
input_smiles = "CCCCCNc1nc(N)nc(C)c1Cc1ccc(CP(=O)(O)O)cc1"
answer_label = "N"

[[record]]
input_smiles = "CCCCCNc1nc(N)nc(C)c1Cc1ccc(OCCOCCC(F)(F)P(=O)(O)O)cc1OC"
answer_label = "N"

